biological target: Fes (UniProt P07332); experiment: phosphorylation enrichment, bacterial display (enrichment ratio); higher = better substrate or ligand; peptides without Tyr show the background;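 also: 11-residue human phosphosite peptides and single-mutation variants displayed on the E. coli surface, counted by deep sequencing, each peptide's frequency after selection divided by its frequency in the unselected input library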;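 also: frequency after pTyr selection over input frequency; kinase dosed for 20-30% of maximal phosphorylation in three min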
Sequence (P07332 whole entry, looked up): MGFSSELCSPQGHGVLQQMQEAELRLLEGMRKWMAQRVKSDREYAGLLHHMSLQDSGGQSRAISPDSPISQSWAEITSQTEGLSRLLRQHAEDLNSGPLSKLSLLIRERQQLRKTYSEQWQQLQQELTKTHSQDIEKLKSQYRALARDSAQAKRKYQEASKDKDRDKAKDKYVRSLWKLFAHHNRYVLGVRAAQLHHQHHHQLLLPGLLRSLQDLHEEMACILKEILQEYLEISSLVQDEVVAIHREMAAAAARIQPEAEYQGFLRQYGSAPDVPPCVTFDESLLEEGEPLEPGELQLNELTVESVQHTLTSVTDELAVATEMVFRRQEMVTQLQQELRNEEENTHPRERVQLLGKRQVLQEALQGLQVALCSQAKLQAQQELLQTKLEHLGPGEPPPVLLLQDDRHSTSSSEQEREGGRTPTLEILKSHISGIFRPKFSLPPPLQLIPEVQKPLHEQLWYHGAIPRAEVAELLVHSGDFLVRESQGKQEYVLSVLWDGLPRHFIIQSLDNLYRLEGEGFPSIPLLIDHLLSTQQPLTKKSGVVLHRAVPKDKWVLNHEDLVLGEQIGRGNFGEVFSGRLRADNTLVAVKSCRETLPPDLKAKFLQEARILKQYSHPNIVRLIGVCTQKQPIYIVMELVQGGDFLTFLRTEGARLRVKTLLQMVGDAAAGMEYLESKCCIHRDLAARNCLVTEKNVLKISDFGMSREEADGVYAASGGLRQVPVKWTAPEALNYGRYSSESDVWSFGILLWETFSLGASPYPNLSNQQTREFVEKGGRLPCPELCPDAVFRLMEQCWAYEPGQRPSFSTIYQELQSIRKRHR
Property: phosphorylation enrichment; scope: individual sequences
I only need the number, thanks.

Consider the reported phosphorylation enrichment for these sequences:
>>> print(df.to_string())
                     sequence_record          measured_attribute  experimental_value
0             KTTILYKLKLG [ARF1_Y35]  phosphorylation enrichment                   1
1            GLNKGYRMVVN [HINT1_Y94]  phosphorylation enrichment               0.696
2        RGDCMYASLLG [AR_Y269_P271S]  phosphorylation enrichment                1.39
3  FMKEPYIQSRF [HIPK4_Y175_V171M_YF]  phosphorylation enrichment               0.643
4      PRQRRYVYYYS [PTEN_Y174_S170R]  phosphorylation enrichment               0.683

Request: Provide the reported phosphorylation enrichment (system: Fes (UniProt P07332)) for EFLQKYKGFKI [SYNE1_Y6953_YF]
Result: 0.752

Request: Provide the reported phosphorylation enrichment (system: Fes (UniProt P07332)) for IRRQGYSHRIL [MYO3B_Y993]
Result: 0.656

Request: Provide the reported phosphorylation enrichment (system: Fes (UniProt P07332)) for ATDLAYFLVCK [ASL_Y375_R379C_YF]
Result: 1.61

Request: Provide the reported phosphorylation enrichment (system: Fes (UniProt P07332)) for MTRDIYETDFF [INSR_Y1185_YF]
Result: 1.39

Request: Provide the reported phosphorylation enrichment (system: Fes (UniProt P07332)) for TDEYEYDELIV [TGM1_Y136]
Result: 1.2

Data credit: the supplement of paper PMC10065799
